The reported numbers originate from the supplement of paper PMC8728848.

- Subject Of Test: Fuc(a1-3)[Gal(b1-4)]Glc6S
- Test Protocol: glycan array binding signal (z-score within array); higher = stronger binding
- Test Conditions: glycan notation: IUPAC condensed, linker removed
About 410 targets per protein were measured; listed, in parts, are those with the strongest signals and a random draw of the rest.
Entries and their measured glycan array binding signal (z-score) follow.

Take a look at these entries with their results.
# Binder, Measured Value
rows = [
    ("SBD-G4S3-SBD (protein) MASIPSSASVQLDSYNYDGSTFSGKIYVKNIAYSKKVTVVYADGSDNWNNNGNIIAASFSGPISGSNYEYWTFSASVKGIKEFYIKYEVSGKTYYDNNNSANYQVSTGGGGSGGGGSGGGGSEFASIPSSASVQLDSYNYDGSTFSGKIYVKNIAYSKKVTVVYADGSDNWNNNGNIIAASFSGPISGSNYEYWTFSASVKGIKEFYIKYEVSGKTYYDNNNSANYQVST", 2),
    ("CIH1 (Colletotrichum higginsianum) (protein) LPQATPTTPTPTSASAAATISATSSPTCSPGPVIDYTVVSGDTLTIISQRFSSGICNIADASGITNPNFLSLGQVLQVPTYVCTPDNTSCLAKEGSDTCVEGGPATHTIVAGDTFFLVAQSLGLDVNALLAANEGVDPLLLQIGDVINIPVC", -0.072),
    ("Apa (Mycobacterium tuberculosis), Rv1860 (protein) MHQVDPNLTRRKGRLAALAIAAMASASLVTVAVPATANADPEPAPPVPTTAASPPSTAAAPPAPATPVAPPPPAAANTPNAQPGDPNAAPPPADPNAPPPPVIAPNAPQPVRIDNPVGGFSFALPAGWVESDAAHFDYGSALLSKTTGDPPFPGQPPPVANDTRIVLGRLDQKLYASAEATDSKAAARLGSDMGEFYMPYPGTRINQETVSLDANGVSGSASYYEVKFSDPSKPNGQIWTGVIGSPAANAPDAGPPQRWFVVWLGTANNPVDKGAAKALAESIRPLVAPPPAPAPAPAEPAPAPAPAGEVAPTPTTPTPQRTLPA", 0.898),
    ("SefD (Salmonella enterica), Q9L6K6 (protein) GAYIIRGQNNSAHKLRIRIGGEDWQPDNSGIGMVSHSDFTNEFNIYYFGNGDIPVDTYLISIYATEIEL", -0.328),
    ("HBHA-Rv (Mycobacterium tuberculosum), P0A5P6 (protein) MAENSNIDDIKAPLLAALGAADLALATVNELITNLRERAEETRTDTRSRVEESRARLTKLQEDLPEQLTELREKFTAEELRKAAEGYLEAATSRYNELVERGEAALERLRSQQSFEEVSARAEGYVDQAVELTQEALGTVASQTRAVGERAAKLVGIELPKKAAPAKKAAPAKKAAPAKKAAAKKAPAKKAAAKKVTQK", -0.398),
]

Now let's try a different one.
q: Find the measured glycan array binding signal (z-score) of Wzz (Escherichia coli) (protein) MRTWKFPSVRVMMRVENNNVSGQNHDPEQIDLIDLLVQLWRGKMTIIISVIVAIVLAIGYLAVAKEKWTSTAIITQPDVGQIAGYNNAMNVIYGQAAPKVSDLQETLIGRFSSAFSALAETLDNQEEPEKLTIEPSVKNQQLPLTVSYVGQTAEGAQMKLAQYIQQVDDKVNQELEKDLKDNIALGRKNLQDSLRTQEVVAQEQKDLRIRQIQEALQYANQAQVTKPQIQQTGEDITQDTLFLLGSEALESMIKHEATRPLVFSSNYYQTRQNLLDIDNLDVDKLDIHAYLYVMKPTLPIRRDSPKKAITLILAVLLGGMVGAGIVLGRNALRNYNAK and report it.
a: 1.46
